- Tested on: RAW-Dual
- Assay Explanation: IRF Lucia reporter activity, fold change vs agonist alone; cytotoxicity flag (confluency mask): not cytotoxic; higher = enhanced IRF activity
- Assay Context: agonist: 3'3'-cGAMP (STING) 10 ug/mL
The full ranking holds about 2,900 compounds; the median of “IRF Lucia reporter activity, fold change vs agonist alone” is about 0.9, and the highest 2% start at about 2.8. For the sample, the highest values were picked, then their nearest neighbours and some compounds at random.
Classification by IRF Lucia reporter activity follows these ranges: low interval = under 0.4, middle interval = from 0.4 up to 1, high interval = 1 and over

[Q] The entry to classify is O=C(CCc1ccc(O)cc1)c1c(O)cccc1OC1OC(CO)C(O)C(O)C1O (stereo unspecified) (library stock concentration (final ~1000-fold dilution): 10 mM) ; which class holds it?
[A] middle interval

[Q] The entry to classify is Cc1cc(C)c(/C=C2\C(=O)Nc3ccccc32)[nH]1 (library stock concentration (final ~1000-fold dilution): 10 mM) ; which class holds it?
[A] middle interval

[Q] The entry to classify is COc1cc(O)c(C(=O)Nc2nc(C(=O)NCCN(C(C)C)C(C)C)cs2)cc1OC.Cl.O.O.O (library stock concentration (final ~1000-fold dilution): 10 mM) ; which class holds it?
[A] middle interval

[Q] The entry to classify is Cc1nnc(SCC2=C(C(=O)O)N3C(=O)C(NC(=O)Cn4cnnn4)C3SC2)s1 (stereo unspecified) (library stock concentration (final ~1000-fold dilution): 10 mM) ; which class holds it?
[A] high interval

[Q] The entry to classify is CS(=O)(=O)CCNCc1ccc(-c2ccc3ncnc(Nc4ccc(OCc5cccc(F)c5)c(Cl)c4)c3c2)o1.Cc1ccc(S(=O)(=O)O)cc1.Cc1ccc(S(=O)(=O)O)cc1 (library stock concentration (final ~1000-fold dilution): 10 mM) ; which class holds it?
[A] low interval

[Q] The entry to classify is O=c1nc(N2CCOCC2)oc2c(-c3cccc4c3sc3ccccc34)cccc12 (library stock concentration (final ~1000-fold dilution): 10 mM) ; which class holds it?
[A] low interval

[Q] The entry to classify is CC1(C)CN(C(=O)c2ccc(-c3cccc4nc(NC(=O)C5CC5)nn34)cc2)C1 (library stock concentration (final ~1000-fold dilution): 10 mM) ; which class holds it?
[A] low interval

[Q] The entry to classify is O=C(Nc1nc2cccc(-c3ccc(CN4CCS(=O)(=O)CC4)cc3)n2n1)C1CC1 (library stock concentration (final ~1000-fold dilution): 10 mM) ; which class holds it?
[A] high interval

[Q] The entry to classify is Oc1cc(O)c2c(c1)OC(c1ccc(O)c(O)c1)C(O)[C@H]2c1c(O)cc(O)c2c1OC(c1ccc(O)c(O)c1)C(O)C2 (stereo partly specified) (library stock concentration (final ~1000-fold dilution): 10 mM) ; which class holds it?
[A] middle interval

[Q] The entry to classify is CC(Nc1ncnc2[nH]cnc12)c1cc2cccc(Cl)c2c(=O)n1-c1ccccc1 (stereo unspecified) (library stock concentration (final ~1000-fold dilution): 10 mM) ; which class holds it?
[A] middle interval

[Q] The entry to classify is COC1=CC(c2cc3ccccc3[nH]2)=N/C1=C\c1[nH]c(C)cc1C.CS(=O)(=O)O (library stock concentration (final ~1000-fold dilution): 10 mM) ; which class holds it?
[A] low interval

[Q] The entry to classify is CC(C)N1CCN(Cc2cnc(-c3cc(-c4cccc5[nH]ccc45)cc4[nH]ncc34)o2)CC1 (library stock concentration (final ~1000-fold dilution): 10 mM) ; which class holds it?
[A] middle interval

[Q] The entry to classify is COC(C(=O)N1Cc2[nH]nc(NC(=O)c3ccc(N4CCN(C)CC4)cc3)c2C1)c1ccccc1 (stereo unspecified) (library stock concentration (final ~1000-fold dilution): 10 mM) ; which class holds it?
[A] low interval

[Q] The entry to classify is Nc1ncnc2c1ncn2C(C=O)OC(C=O)CO (stereo unspecified) (library stock concentration (final ~1000-fold dilution): 10 mM) ; which class holds it?
[A] middle interval

[Q] The entry to classify is CC(Nc1ncnc(N)c1C#N)c1cc2cccc(-c3ccc(=O)n(C)c3)c2c(=O)n1C(C)C (stereo unspecified) (library stock concentration (final ~1000-fold dilution): 10 mM) ; which class holds it?
[A] high interval

[Q] The entry to classify is CS(=O)(=O)CCNCc1ccc(-c2ccc3ncnc(Nc4ccc(OCc5cccc(F)c5)c(Cl)c4)c3c2)o1.Cc1ccc(S(=O)(=O)O)cc1.Cc1ccc(S(=O)(=O)O)cc1.O (library stock concentration (final ~1000-fold dilution): 10 mM) ; which class holds it?
[A] low interval

[Q] The entry to classify is COc1cc2ccc(=O)oc2c(OC)c1O (library stock concentration (final ~1000-fold dilution): .1 mM) ; which class holds it?
[A] high interval

[Q] The entry to classify is NC(=O)C1CCC2CN1C(=O)N2OS(=O)(=O)O (stereo unspecified) (library stock concentration (final ~1000-fold dilution): 10 mM) ; which class holds it?
[A] high interval

[Q] The entry to classify is O=C1OC(COc2ccccc2[N+](=O)[O-])CC1Cc1ccccc1 (stereo unspecified) (library stock concentration (final ~1000-fold dilution): 10 mM) ; which class holds it?
[A] high interval

[Q] The entry to classify is CC1COCCN1c1cc(C2(S(C)(=N)=O)CC2)nc(-c2ccnc3[nH]ccc23)n1 (stereo unspecified) (library stock concentration (final ~1000-fold dilution): 10 mM) ; which class holds it?
[A] low interval

Data origin: the supplement of paper PMC10037445
